Where do the numbers come from? From patent US11198699B2.

Test system: A549 lung carcinoma cells
Test: Cell proliferation assay, A549 (CellTiter-Glo, 7 days)
Type: cell-based
Conditions: Homo sapiens, A549, 168 h, A549, 7 days, CellTiter-Glo 2.0
pEC50: −log10 of the molar value.
// pEC50 lookup, one value per entry

Below: 3 molecules and their reported pEC50.
molecule: Cc1ncnc2c1ccn2[C@@H]1C[C@](C)(CCc2cc(F)c3cc(Cl)c(N)nc3c2)[C@@H](O)[C@H]1O
test result: > 7.70
//
molecule: CCCCCOC(=O)Nc1ccc2ccc(CC[C@@]3(C)C[C@@H](n4ccc5c(N)ncnc54)[C@H](O)[C@@H]3O)cc2n1
test result: 7.00 to 7.70
//
molecule: C[C@]1(CCc2ccc3cc(Br)c(N)nc3c2)C[C@@H](n2ccc3c(N)nc(Cl)nc32)[C@H](O)[C@@H]1O
test result: > 7.70

Query: Value lookup for pEC50; key = C[C@]1(CCc2cc(F)c3cc(Cl)c(N)nc3c2)C[C@@H](n2ccc3c(N)nccc32)[C@H](O)[C@@H]1O
Reply: 7.00 to 7.70

Query: Value lookup for pEC50; key = Nc1nc2cc(OC[C@@]3(F)C[C@@H](n4ccc5c(N)ncnc54)[C@H](O)[C@@H]3O)ccc2cc1Br
Reply: 7.00 to 7.70

Query: Value lookup for pEC50; key = C[C@]1(CCc2ccc3cc(Br)c(N)nc3c2)C[C@@H](n2ccc3c(N)ncnc32)[C@H](O)[C@@H]1O
Reply: > 7.70

Query: Value lookup for pEC50; key = C[C@]1(CCc2cc(F)c3ccc(N)nc3c2)C[C@@H](n2ccc3c(N)ncc(F)c32)[C@H](O)[C@@H]1O
Reply: > 7.70

Query: Value lookup for pEC50; key = Nc1nc2cc(OC[C@@H]3[C@@H](O)[C@@H](O)C4(n5ccc6c(N)ncnc65)C[C@@H]34)ccc2cc1Br (mixture of isomers)
Reply: ≤ 6.00

Query: Value lookup for pEC50; key = C[C@]1(CCc2ccc3ccc(N)nc3c2)C[C@@H](c2ccc3c(N)ncnn23)[C@H](O)[C@@H]1O
Reply: > 7.70

Query: Value lookup for pEC50; key = Nc1ccc2ccc(CC[C@@]34CC3[C@@H](n3ccc5c(N)ncnc53)[C@H](O)[C@@H]4O)nc2n1 (stereo partly shown)
Reply: 6.00 to 7.00

Query: Value lookup for pEC50; key = C[C@]1(CCc2ccc3cc(Cl)c(N)nc3c2)C[C@@H](n2ccc3c(N)ncc(F)c32)[C@H](O)[C@@H]1O
Reply: > 7.70

Query: Value lookup for pEC50; key = Nc1nc2cc(OC[C@H]3C[C@@H](n4ccc5c(N)ncnc54)[C@H](F)[C@@H]3O)ccc2cc1Br
Reply: ≤ 6.00

Query: Value lookup for pEC50; key = CC(C)C(=O)O[C@H]1[C@H](n2ccc3c(N)ncnc32)C[C@](C)(CCc2ccc3ccc(N)nc3c2)[C@H]1OC(=O)C(C)C
Reply: 6.00 to 7.00
